B1: Transcription intermediary factor 1-beta, residues 620 to 671; numbered along this chain, Q13263 (parent)
chain: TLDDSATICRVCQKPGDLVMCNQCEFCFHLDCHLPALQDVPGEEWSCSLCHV

variants of: B1; assay: abundance fitness (aPCA) (normalised: wild type 0, dead -1); higher = more abundant; growth selection in yeast, the domain comes from the species named; details: Homo sapiens
Recorded measurements of abundance fitness, one per entry
measured.parameter: abundance fitness

1. D31S	-0.317
2. Q38T	-0.345
3. C9I	-0.955
4. N22E	0.094
5. C32N	-0.528
6. D31N	0.175
7. C32S	-0.507
8. I8K	-0.107
9. T7R	0.077
10. D39F	-0.214
11. M20P	0.067
12. N22K	0.05
13. A36R	0.058
14. V52A	0.197
15. C50F	-0.315
16. P35W	-0.799
17. D17Y	-0.512
18. H51Q	0.148
19. P35D	-0.447
20. D31T	-0.308
21. L2N	0.017
22. E25R	-0.136
23. D4Q	-0.294
24. H51Y	-0.553
25. E25F	-0.113
26. H33Q	0.042
27. S48G	-0.071
28. T7S	-0.079
29. S46P	-0.208
30. H33L	-0.117
31. P15N	-0.396
32. L18T	0.162
33. V19T	-0.314
34. H33W	-0.444
35. G16L	-0.432
36. I8E	-0.065
37. G42H	0.083
38. W45N	-0.377
39. D31Q	0.04
40. V52G	-0.32
41. G42S	-0.265
42. C47Y	-0.736
43. P35L	-0.508
44. L2Q	0.016
45. F28T	-0.278
46. L34D	0.325
